Assay Remarks: chemical genetic growth profiling, strain panel (AID 1159580);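 also: tested at 20 µM; growth read once vehicle control cultures reached saturation at 30 °C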
Conditions: S. cerevisiae deletion strains, growth OD, locus YLR370C, strain arc18, stronger effect = lower value
The campaign covered roughly 5,500 compounds. About 2,000 (36%) were called active. Inconclusive results (about 18%) are left out. Some of the results follow.
For each record, check the reported normalized growth: if it is below 1 write Y, else write N.

Compound	Group
NCCc1cc(O)c(O)cc1O	Y
C[C@]12CCC3C(CC[C@H]4C[C@H](OS(=O)(=O)O)CC[C@]34C)C1CCC2=O (some centres not stated)	N
CCOc1cccc(C(=O)c2ccc(O)c(O)c2O)c1	Y

Consider the additional compound presented here.
Answer whether the compound CCOc1ccc(C(=O)c2ccc(O)c(O)c2O)cc1 has normalized growth strictly less than 1
Y

These entries and their values trace back to PubChem BioAssay AID1159580.
